Target: T1, human CD73 expressed on the cell surface (human, UniProt P21589 27-549)
T1 sequence: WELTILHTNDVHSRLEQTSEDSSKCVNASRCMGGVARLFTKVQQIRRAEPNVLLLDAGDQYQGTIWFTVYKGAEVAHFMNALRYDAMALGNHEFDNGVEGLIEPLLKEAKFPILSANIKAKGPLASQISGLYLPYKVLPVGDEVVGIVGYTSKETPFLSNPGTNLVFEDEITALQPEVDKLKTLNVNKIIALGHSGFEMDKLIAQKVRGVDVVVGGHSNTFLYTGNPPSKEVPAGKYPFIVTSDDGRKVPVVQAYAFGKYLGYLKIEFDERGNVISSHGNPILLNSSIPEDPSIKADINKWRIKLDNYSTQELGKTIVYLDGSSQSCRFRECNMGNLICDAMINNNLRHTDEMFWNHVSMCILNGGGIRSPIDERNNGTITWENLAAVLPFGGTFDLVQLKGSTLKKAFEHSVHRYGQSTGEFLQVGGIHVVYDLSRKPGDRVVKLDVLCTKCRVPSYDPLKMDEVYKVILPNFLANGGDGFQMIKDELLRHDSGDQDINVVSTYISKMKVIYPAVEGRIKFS
Assay: cell-based or functional assay
For each of the binders below, state its IC50 for inhibiting the enzymatic activity of CD73 (Calu-6 cells).
Numbers only, in ng/mL.

Recorded IC50 for inhibiting the enzymatic activity of CD73 (Calu-6 cells), per entry:
ADI-37542 (antibody, human IgG4 S228P, kappa, F234A L235A, V domains shown) VH: QVQLQESGPGLVKPSETLSLTCAVSGYSISEGYYWGWIRQPPGKGLEWIGSIYHTGFTYYNPSLKSRVTISVDTSKNQFSLKLSSVTAADTAVYYCARASIYTPPPEYFQHWGQGTLVTVSS VL: DIQMTQSPSTLSASVGDRVTITCRASQSISSWLAWYQQKPGKAPKLLIYDASSLESGVPSRFSGSGSGTEFTLTISSLQPDDFATYYCQQSRIYSTFGGGTKVEIKR: 189
ADI-37503 (antibody, human IgG4 S228P, kappa, F234A L235A, V domains shown) VH: EVQLLESGGGLVQPGGSLRLSCAASGFTFSNYAMSWVRQAPGKGLEWVSAISGRASSTYYADSVKGRFTISRDNSKNTLYLQMNSLRAEDTAVYYCARGGPYGSGSYWDTFDYWGQGTLVTVSS VL: EIVMTQSPATLSVSPGERATLSCRASQSVSSNLAWYQQKPGQAPRLLIYGASTRATGIPARFSGSGSGTEFTLTISSLQSEDFAVYYCQQYTNHYTFGGGTKVEIKR: 62
ADI-37496 (antibody, human IgG4 S228P, kappa, F234A L235A, V domains shown) VH: EVQLVESGGGLVQPGRSLRLSCAASGFTFDDFYMHWVRQAPGKGLEWVSGISWSSTSIDYADSVKGRFTISRDNAKNSLYLQMNSLRAEDTAVYYCAKGKYLPTGSVDYWGQGTLVTVSS VL: EIVLTQSPGTLSLSPGERATLSCRASQSVSSSYLAWYQQKPGQAPRLLIYGASSRATGIPDRFSGSGSGTDFTLTISRLEPEDFAVYYCQQYYDYPPITFGGGTKVEIKR: 173
ADI-37504 (antibody, human IgG4 S228P, kappa, F234A L235A, V domains shown) VH: EVQLLESGGGLVQPGGSLRLSCAASGFTFHNYAMSWVRQAPGKGLEWVSAISGTGRATYYADSVKGRFTISRDNSKNTLYLQMNSLRAEDTAVYYCARGGPYGSGSYWDTFDYWGQGTLVTVSS VL: EIVMTQSPATLSVSPGERATLSCRASQSVSSNLAWYQQKPGQAPRLLIYGASTRATGIPARFSGSGSGTEFTLTISSLQSEDFAVYYCQQYTNHYTFGGGTKVEIKR: 70

// moving on: another record for IC50 for inhibiting the enzymatic activity of CD73 (Calu-6 cells)
Asked: What value of IC50 for inhibiting the enzymatic activity of CD73 (Calu-6 cells) has been reported for the following binder? ADI-37506 (antibody, human IgG4 S228P, kappa, F234A L235A, V domains shown) VH: EVQLLESGGGLVQPGGSLRLSCAASGFTFSNLAMSWVRQAPGKGLEWVSAISGRATSTYYADSVKGRFTISRDNSKNTLYLQMNSLRAEDTAVYYCARGGPYGSGSYWDTFDYWGQGTLVTVSS VL: EIVMTQSPATLSVSPGERATLSCRASQSVSSNLAWYQQKPGQAPRLLIYGASTRATGIPARFSGSGSGTEFTLTISSLQSEDFAVYYCQQYTNHYTFGGGTKVEIKR
Given back: 73
